Cited source for all entries: the supplement of paper PMC11061612

# Bliss excess values compiled below
test system: CAL-51 (Breast Carcinoma); test: Bliss excess, mean over the matrix (fraction); higher = more synergy
reported property: Bliss excess

>  <compound>
Cn1cnc2c(F)c(Nc3ccc(Br)cc3Cl)c(C(=O)NOCCO)cc21 [Selumetinib] + C=CCn1c(=O)c2cnc(Nc3ccc(N4CCN(C)CC4)cc3)nc2n1-c1cccc(C(C)(C)O)n1 [AZD1775] (first compound max 10 µM, partner max 1 µM)

>  <recorded measurement>
-0.0175

$$$$
>  <compound>
CC(=O)Nc1cccc(-n2c(=O)n(C3CC3)c(=O)c3c(Nc4ccc(I)cc4F)n(C)c(=O)c(C)c32)c1 [Trametinib] + Cc1nc(-c2cn3c(n2)-c2ccc(-c4cnn(C(C)(C)C(N)=O)c4)cc2OCC3)n(C(C)C)n1 [Taselisib] (first compound max 1 µM, 7x7, partner max 10 µM)

>  <recorded measurement>
0.0242

$$$$
>  <compound>
CC(=O)c1c(C)c2cnc(Nc3ccc(N4CCNCC4)cn3)nc2n(C2CCCC2)c1=O [Palbociclib] + CN(CC[C@H](CSC1=CC=CC=C1)NC2=C(C=C(C=C2)S(=O)(=O)NC(=O)C3=CC=C(C=C3)N4CCC(CC4)[C@H](C5=CC=CC=C5C6=CC=C(C=C6)Cl)O)S(=O)(=O)C(F)(F)F)CCO [AZD4320] (first compound max 10 µM, 7x7, partner max 1 µM)

>  <recorded measurement>
-0.123

$$$$

----------
test system: EN (Endometrial Carcinoma); assay: combination Emax (second highest fraction inhibited in the dose matrix, 72 h); higher = more inhibition; extreme values may be limits of the assay
Kind request: treat 0.7 as inclusive, so combination Emax at 0.7 or higher is Criterion met, anything lower is Criterion not met.

>  <molecule>
NC1(C(=O)N[C@@H](CCO)c2ccc(Cl)cc2)CCN(c2ncnc3[nH]ccc23)CC1 [Capivasertib] + Cn1cnc2c(F)c(Nc3ccc(Br)cc3Cl)c(C(=O)NOCCO)cc21 [Selumetinib] (first compound max 10 µM, 7x7, partner max 10 µM)

>  <class name>
Criterion not met

$$$$
>  <molecule>
C=CCn1c(=O)c2cnc(Nc3ccc(N4CCN(C)CC4)cc3)nc2n1-c1cccc(C(C)(C)O)n1 [AZD1775] + Nc1ccn([C@@H]2O[C@H](CO)[C@@H](O)C2(F)F)c(=O)n1 [Gemcitabine] (first compound max 1 µM, partner max 0.3 µM)

>  <class name>
Criterion not met

$$$$
>  <molecule>
Cc1c2c(nn1C)CSCc1cc(n(C)n1)CSc1cc(c3ccccc3c1)OCCCc1c(C(=O)O)n(C)c3c-2c(Cl)ccc13 [AZD5991] + CC1(C)CCC(CN2CCN(c3ccc(C(=O)NS(=O)(=O)c4ccc(NCC5CCOCC5)c([N+](=O)[O-])c4)c(Oc4cnc5[nH]ccc5c4)c3)CC2)=C(c2ccc(Cl)cc2)C1 [Venetoclax] (first compound max 1 µM, 7x7, partner max 1 µM)

>  <class name>
Criterion not met

$$$$
>  <molecule>
Cc1c2c(nn1C)CSCc1cc(n(C)n1)CSc1cc(c3ccccc3c1)OCCCc1c(C(=O)O)n(C)c3c-2c(Cl)ccc13 [AZD5991] + CC(=O)O[C@H]1C(=O)[C@@]2(C)[C@H]([C@H](OC(=O)c3ccccc3)[C@]3(O)C[C@H](OC(=O)[C@H](O)[C@@H](NC(=O)c4ccccc4)c4ccccc4)C(C)=C1C3(C)C)[C@]1(OC(C)=O)CO[C@@H]1C[C@@H]2O [Paclitaxel] (first compound max 1 µM, 7x7, partner max 3 µM)

>  <class name>
Criterion met

$$$$
>  <molecule>
COc1cccc2c1C(=O)c1c(O)c3c(c(O)c1C2=O)C[C@@](O)(C(=O)CO)C[C@@H]3O[C@H]1C[C@H](N)[C@H](O)[C@H](C)O1 [Doxorubicin] + Cc1cc2ncnn2cc1Nc1ncc2c(n1)n(C1CCOCC1)c(=O)n2C [AZD7648] (first compound max 1 µM, 7x7, partner max 10 µM)

>  <class name>
Criterion met

$$$$

----------
system: UMC-11 (Other Solid Carcinomas); assay: Bliss excess, mean over the matrix (fraction); higher = more synergy
# Bliss excess values compiled below

>  <compound>
Cc1cc2ncnn2cc1Nc1ncc2c(n1)n(C1CCOCC1)c(=O)n2C [AZD7648] + C=CCn1c(=O)c2cnc(Nc3ccc(N4CCN(C)CC4)cc3)nc2n1-c1cccc(C(C)(C)O)n1 [AZD1775] (first compound max 10 µM, partner max 1 µM)

>  <measured on>
UMC-11 (Other Solid Carcinomas)

>  <Bliss excess>
-0.0202

$$$$
>  <compound>
CN(CCO)CC[C@H](CSc1ccccc1)Nc1ccc(S(=O)(=O)NC(=O)c2ccc(N3CCC([C@@H](O)c4ccccc4-c4ccc(Cl)cc4)CC3)cc2)cc1S(=O)(=O)C(F)(F)F [AZD4320] + Cc1cc2ncnn2cc1Nc1ncc2c(n1)n(C1CCOCC1)c(=O)n2C [AZD7648] (first compound max 1 µM, 7x7, partner max 10 µM)

>  <measured on>
UMC-11 (Other Solid Carcinomas)

>  <Bliss excess>
0.0377

$$$$
>  <compound>
Cc1nc(Nc2ncc(C(=O)Nc3c(C)cccc3Cl)s2)cc(N2CCN(CCO)CC2)n1 [Dasatinib] + CC(=O)Nc1cccc(-n2c(=O)n(C3CC3)c(=O)c3c(Nc4ccc(I)cc4F)n(C)c(=O)c(C)c32)c1 [Trametinib] (first compound max 2 µM, 7x7, partner max 1 µM)

>  <measured on>
UMC-11 (Other Solid Carcinomas)

>  <Bliss excess>
-0.0733

$$$$
>  <compound>
Cc1c2c(nn1C)CSCc1cc(n(C)n1)CSc1cc(c3ccccc3c1)OCCCc1c(C(=O)O)n(C)c3c-2c(Cl)ccc13 [AZD5991] + CN(C)CCCOc1ccc(-c2ccc3ncc4c(c3c2)n(C2CCOCC2)c(=O)n4C)cn1 [AZD0156] (first compound max 1 µM, 7x7, partner max 1 µM)

>  <measured on>
UMC-11 (Other Solid Carcinomas)

>  <Bliss excess>
0.0551

$$$$

----------
system: HARA (Squamous Cell Lung Carcinoma); assay: Bliss excess, mean over the matrix (fraction); higher = more synergy

>  <molecule>
Cn1cnc2c(F)c(Nc3ccc(Br)cc3Cl)c(C(=O)NOCCO)cc21 [Selumetinib] + C[C@@H]1COCCN1C2=NC(=NC(=C2)C3(CC3)[S@](=N)(=O)C)C4=C5C=CNC5=NC=C4 [AZD6738] (first compound max 10 µM, 7x7, partner max 10 µM)

>  <Bliss excess>
-0.0115

$$$$
>  <molecule>
N#Cc1cnc(Nc2cc(NC[C@H]3CNCCO3)c(C(F)(F)F)cn2)cn1 [SRA737] + C=CCn1c(=O)c2cnc(Nc3ccc(N4CCN(C)CC4)cc3)nc2n1-c1cccc(C(C)(C)O)n1 [AZD1775] (first compound max 10 µM, partner max 1 µM)

>  <Bliss excess>
0.0442

$$$$
>  <molecule>
CN(CCO)CC[C@H](CSc1ccccc1)Nc1ccc(S(=O)(=O)NC(=O)c2ccc(N3CCC([C@@H](O)c4ccccc4-c4ccc(Cl)cc4)CC3)cc2)cc1S(=O)(=O)C(F)(F)F [AZD4320] + CN(C)CCCOc1ccc(-c2ccc3ncc4c(c3c2)n(C2CCOCC2)c(=O)n4C)cn1 [AZD0156] (first compound max 1 µM, 7x7, partner max 1 µM)

>  <Bliss excess>
0.0007

$$$$

----------
system: HARA (Squamous Cell Lung Carcinoma); experiment: combination Emax (second highest fraction inhibited in the dose matrix, 72 h); higher = more inhibition; extreme values may be limits of the assay

>  <compound>
NC1(C(=O)N[C@@H](CCO)c2ccc(Cl)cc2)CCN(c2ncnc3[nH]ccc23)CC1 [Capivasertib] + Cn1cnc2c(F)c(Nc3ccc(Br)cc3Cl)c(C(=O)NOCCO)cc21 [Selumetinib] (first compound max 10 µM, 7x7, partner max 10 µM)

>  <measured on>
HARA (Squamous Cell Lung Carcinoma)

>  <combination Emax>
0.607

$$$$
>  <compound>
C[C@@H](Oc1cc(-c2cnn(C3CCNCC3)c2)cnc1N)c1c(Cl)ccc(F)c1Cl [Crizotinib] + Cn1cnc2c(F)c(Nc3ccc(Br)cc3Cl)c(C(=O)NOCCO)cc21 [Selumetinib] (first compound max 10 µM, 7x7, partner max 10 µM)

>  <measured on>
HARA (Squamous Cell Lung Carcinoma)

>  <combination Emax>
0.59

$$$$
>  <compound>
C=CCn1c(=O)c2cnc(Nc3ccc(N4CCN(C)CC4)cc3)nc2n1-c1cccc(C(C)(C)O)n1 [AZD1775] + C[C@@H]1COCCN1C2=NC(=NC(=C2)C3(CC3)[S@](=N)(=O)C)C4=C5C=CNC5=NC=C4 [AZD6738] (first compound max 1 µM, partner max 10 µM)

>  <measured on>
HARA (Squamous Cell Lung Carcinoma)

>  <combination Emax>
0.906

$$$$

----------
system: SU-DHL-6 (B-Cell Non-Hodgkin's Lymphoma); assay: Bliss excess, mean over the matrix (fraction); higher = more synergy
# Bliss excess values compiled below

>  <compound>
C[C@@H]1COCCN1c1cc(C2([S@](C)(=N)=O)CC2)nc(-c2ccnc3[nH]ccc23)n1 [AZD6738] + O=C(c1cc(Cc2n[nH]c(=O)c3ccccc23)ccc1F)N1CCN(C(=O)C2CC2)CC1 [Olaparib] (first compound max 10 µM, 7x7, partner max 10 µM)

>  <measured on>
SU-DHL-6 (B-Cell Non-Hodgkin's Lymphoma)

>  <Bliss excess>
-0.0124

$$$$
>  <compound>
CC1(C)CCC(CN2CCN(c3ccc(C(=O)NS(=O)(=O)c4ccc(NCC5CCOCC5)c([N+](=O)[O-])c4)c(Oc4cnc5[nH]ccc5c4)c3)CC2)=C(c2ccc(Cl)cc2)C1 [Venetoclax] + C[C@@H](Nc1cc(F)cc(F)c1)c1cc(C(=O)N(C)C)cc2c(=O)cc(N3CCOCC3)oc12 [AZD8186] (first compound max 1 µM, 7x7, partner max 3 µM)

>  <measured on>
SU-DHL-6 (B-Cell Non-Hodgkin's Lymphoma)

>  <Bliss excess>
0.0547

$$$$
>  <compound>
CC(=O)Nc1cccc(-n2c(=O)n(C3CC3)c(=O)c3c(Nc4ccc(I)cc4F)n(C)c(=O)c(C)c32)c1 [Trametinib] + Cc1nc(-c2cn3c(n2)-c2ccc(-c4cnn(C(C)(C)C(N)=O)c4)cc2OCC3)n(C(C)C)n1 [Taselisib] (first compound max 1 µM, 7x7, partner max 10 µM)

>  <measured on>
SU-DHL-6 (B-Cell Non-Hodgkin's Lymphoma)

>  <Bliss excess>
0.0238

$$$$
